assay: 28-day twice-daily oral gavage pharmacokinetics in CD1 mice; format: in vivo; details: male, CD1, mouse, plasma, po, 150 mg/kg, day 1; 150 mg/kg/dose BID oral gavage; M; after second daily dose; read-out: AUC0–12
readout: AUC(0-t)
Please don't drop the unit; write it after the number.

Prompt: Note AUC(0-t) for the molecule shown: O=C(Nc1cc(F)c(F)c(F)c1)c1ccc(F)c(S(=O)(=O)N2CCC(O)CC2)c1 [NVR 3-778]
Completion: 166 µg·h/mL

* * *

system: HBV GT F; assay: Transient-transfection antiviral study in HepG2 cells, GT F; assay type: cell-based; settings: Hepatitis B virus, HepG2, 72 h, read-out: EC50 (mean), HBV GT F
readout: EC50 (nM)
# unit: nM | format: bare number

Prompt: Consider the compound O=C(Nc1cc(F)c(F)c(F)c1)c1ccc(F)c(S(=O)(=O)N2CCC(O)CC2)c1 and give its recorded EC50.
Completion: 560

* * *

tested on: HBV; assay: Antiviral studies using HepG2.2.15 cells (HBV DNA and HBV RNA readouts); format: cell-based, hepatitis B virus (GT D); details: Hepatitis B virus; HepG2.2.15 cells, QuantiGene assay; read-out: EC50, intracellular encapsidated pgRNA (mean)
readout: pEC50
pEC50 field: float, defined as -log10 of concentration (mol/L).

Prompt: Please give measured pEC50 of the following entry: O=C(Nc1cc(F)c(F)c(F)c1)c1ccc(F)c(S(=O)(=O)N2CCC(O)CC2)c1
Completion: 6.36

* * *

test: 28-day twice-daily oral gavage pharmacokinetics in CD1 mice; type: in vivo; settings: male, CD1, mouse, plasma, po, 500 mg/kg, day 1; 500 mg/kg/dose BID oral gavage; M; relative to second daily dose
readout: Tmax
Write the figure, then the unit, nothing else.

Prompt: Quote Tmax reported for O=C(Nc1cc(F)c(F)c(F)c1)c1ccc(F)c(S(=O)(=O)N2CCC(O)CC2)c1 please.
Completion: 1 h

* * *

experiment: Oral bioavailability and pharmacokinetics in beagle dogs; format: in vivo; details: male, dog, plasma; oral 1.5 mg/kg versus i.v. 0.5 mg/kg, beagle dogs
readout: bioavailability (%)
Return type: number; implicit unit %.

Prompt: Entry O=C(Nc1cc(F)c(F)c(F)c1)c1ccc(F)c(S(=O)(=O)N2CCC(O)CC2)c1 needs its bioavailability filled in; supply it.
Completion: 84.6

* * *

assay: 28-day twice-daily oral gavage pharmacokinetics in CD1 mice; format: in vivo; conditions: male, CD1, mouse, plasma, po, 50 mg/kg, day 1; 50 mg/kg/dose BID oral gavage; M; plasma; read-out: Cmax
readout: Cmax (ng/mL)
Give your result in ng/mL as a bare value.

Prompt: Look up Cmax of O=C(Nc1cc(F)c(F)c(F)c1)c1ccc(F)c(S(=O)(=O)N2CCC(O)CC2)c1 [NVR 3-778] and report it.
Completion: 12700

* * *

system: HBV GT H; experiment: Transient-transfection antiviral study in HepG2 cells, GT H; format: cell-based; settings: Hepatitis B virus, HepG2, 72 h, read-out: EC50 (mean), HBV GT H
readout: EC50 (nM)
Write the value in nM as a bare number.

Prompt: Read off the recorded EC50 for O=C(Nc1cc(F)c(F)c(F)c1)c1ccc(F)c(S(=O)(=O)N2CCC(O)CC2)c1 [NVR 3-778]
Completion: 580

* * *

assay: 28-day twice-daily oral gavage pharmacokinetics in CD1 mice; assay type: in vivo; conditions: male, CD1, mouse, plasma, po, 50 mg/kg, day 28; 50 mg/kg/dose BID oral gavage; M; plasma; read-out: Cmax
readout: Cmax (ng/mL)
Field format: number, assumed ng/mL, no unit text.

Prompt: Give Cmax for the following molecule: O=C(Nc1cc(F)c(F)c(F)c1)c1ccc(F)c(S(=O)(=O)N2CCC(O)CC2)c1
Completion: 11900
